- Assay comment: Turbidity of surfactant/lipid compositions, formation of macromolecular complexes (Example 1)
- Assay type: physicochemical
- Conditions: 2.5% surfactant, 1% 90H lipid, ca. 0.01% S LPC co-surfactant (as 0.05% SL 80-3) in water, room temperature
Starred links: 1 amine or outer side, 2 acyl side, 3 side chain; linkers in the order of their positions; H or OH if unused. Positions of bridges follow the written chain, without caps; N, C: chain ends. Non-standard residues stand in square brackets, D forms with d. Residues, ends and D or L forms follow the SMILES beside them. X1 = CC(C)CCCCCCCCC[C@H](CC(=O)[*:1])O[*:2]
Reported values of Average Turbidity for individual entries

# example entries with known answers
Molecule	Result
O=C(O)c1ccccc1	>150 FNU
CCCCCCCC(=O)O	>150 FNU

In: Fill in the blank: the reported Average Turbidity of CC(C)CCCCCCCCC[C@@H]1CC(=O)N[C@@H](CCC(=O)O)C(=O)N[C@@H](CC(C)C)C(=O)N[C@H](CC(C)C)C(=O)N[C@@H](C(C)C)C(=O)N[C@@H](CC(=O)O)C(=O)N[C@H](CC(C)C)C(=O)N[C@@H](CC(C)C)C(=O)O1 [Aminofect, Surfactin] (EL[dL]VD[dL]L; linker N-C via X1) is ____.
Out: 13.16 FNU

In: Fill in the blank: the reported Average Turbidity of CCCCCCCCCCCCOCCOCCOCCOCCOCCOCCOCCOCCO is ____.
Out: 131 FNU

In: Fill in the blank: the reported Average Turbidity of CCCCCCCCCC(=O)O is ____.
Out: >150 FNU

In: Fill in the blank: the reported Average Turbidity of CCCCCCCCCCCC(=O)O is ____.
Out: >150 FNU

Cited source: patent US20100062067A1
